Recorded values, source the supplement of paper PMC10733146.

Please go through the items and note down their viability.
test system: primary AML patient cells (S012); test: viability relative to DMSO control (fraction); higher = less drug effect (more viable cells); conditions: 0.12 µM; 48 h
Give bare numbers.

[
  {
    "SMILES REPR": "CS(=O)(=O)c1ccc(C(=O)Nc2ccc(Cl)c(-c3ccccn3)c2)c(Cl)c1",
    "QUANTITATIVE READOUT": 1
  },
  {
    "SMILES REPR": "C[C@@H](Oc1cc(-c2cnn(C3CCNCC3)c2)cnc1N)c1c(Cl)ccc(F)c1Cl",
    "QUANTITATIVE READOUT": 1.06
  }
]

Report viability for each item below.
1. CCc1nc(C(N)=O)c(Nc2ccc(N3CCC(N4CCN(C)CC4)CC3)c(OC)c2)nc1NC1CCOCC1
2. Cc1cc(Nc2ncc(Cl)c(Nc3ccccc3S(=O)(=O)C(C)C)n2)c(OC(C)C)cc1C1CCNCC1
3. Nc1nc(Cl)nc2c1ncn2[C@@H]1O[C@H](CO)[C@@H](O)[C@@H]1F
4. CCN1CCN(Cc2ccc(Nc3ncc(F)c(-c4cc(F)c5nc(C)n(C(C)C)c5c4)n3)nc2)CC1
5. CNC(=O)c1cc(Oc2ccc(NC(=O)Nc3ccc(Cl)c(C(F)(F)F)c3)cc2)ccn1

Output:
1: 0.97; 2: 1.03; 3: 0.826; 4: 1.04; 5: 0.991

Report viability for each item below.
1. O=C(O)CSc1cc(NS(=O)(=O)c2ccc(Br)cc2)c2ccccc2c1O
2. N#Cc1ccnc(N2C(=O)CC[C@H]2C(=O)N(c2cncc(F)c2)[C@H](C(=O)NC2CC(F)(F)C2)c2ccccc2Cl)c1

Output:
1: 1.06; 2: 1.06

* * *

test system: primary MCL patient cells (S063); experiment: viability relative to DMSO control (fraction); higher = less drug effect (more viable cells); settings: 0.024 µM; 48 h
Please go through the items and note down their viability.
Give bare numbers.

[
  {
    "SMILES REPR": "CS(=O)(=O)c1ccc(C(=O)Nc2ccc(Cl)c(-c3ccccn3)c2)c(Cl)c1",
    "viability": 0.93
  },
  {
    "SMILES REPR": "N#Cc1ccnc(N2C(=O)CC[C@H]2C(=O)N(c2cncc(F)c2)[C@H](C(=O)NC2CC(F)(F)C2)c2ccccc2Cl)c1",
    "viability": 1.16
  },
  {
    "SMILES REPR": "Nc1ncn([C@H]2C[C@H](O)[C@@H](CO)O2)c(=O)n1",
    "viability": 1.03
  }
]

In the following, a different molecule is considered.
Task: Assign viability to the following record: Nc1nc(=S)c2[nH]cnc2[nH]1
Output: 1.03

* * *

system: primary CLL patient cells (S043); test: viability relative to DMSO control (fraction); higher = less drug effect (more viable cells); settings: 0.12 µM; 48 h
OBSERVATION TYPE: viability

Below are worked cases with known answers.
[
  {
    "SMILES REPR": "Oc1ccc(/C=C/c2cc(O)cc(O)c2)cc1",
    "OBSERVATION TYPE": "viability",
    "RESULT": 0.864
  },
  {
    "SMILES REPR": "Cc1cc(Nc2ncc(Cl)c(Nc3ccccc3S(=O)(=O)C(C)C)n2)c(OC(C)C)cc1C1CCNCC1",
    "OBSERVATION TYPE": "viability",
    "RESULT": 0.943
  }
]

In the following, a different compound is considered.
Task: Assign viability to the following record: O=C(O)CSc1cc(NS(=O)(=O)c2ccc(Br)cc2)c2ccccc2c1O
Output: 0.981
